# Measurement Target: EGFR(T790M/L858R) (Homo sapiens (Human), UniProt P00533, L858R/T790M)
# Sequence (P00533 25-1210 T790M/L858R): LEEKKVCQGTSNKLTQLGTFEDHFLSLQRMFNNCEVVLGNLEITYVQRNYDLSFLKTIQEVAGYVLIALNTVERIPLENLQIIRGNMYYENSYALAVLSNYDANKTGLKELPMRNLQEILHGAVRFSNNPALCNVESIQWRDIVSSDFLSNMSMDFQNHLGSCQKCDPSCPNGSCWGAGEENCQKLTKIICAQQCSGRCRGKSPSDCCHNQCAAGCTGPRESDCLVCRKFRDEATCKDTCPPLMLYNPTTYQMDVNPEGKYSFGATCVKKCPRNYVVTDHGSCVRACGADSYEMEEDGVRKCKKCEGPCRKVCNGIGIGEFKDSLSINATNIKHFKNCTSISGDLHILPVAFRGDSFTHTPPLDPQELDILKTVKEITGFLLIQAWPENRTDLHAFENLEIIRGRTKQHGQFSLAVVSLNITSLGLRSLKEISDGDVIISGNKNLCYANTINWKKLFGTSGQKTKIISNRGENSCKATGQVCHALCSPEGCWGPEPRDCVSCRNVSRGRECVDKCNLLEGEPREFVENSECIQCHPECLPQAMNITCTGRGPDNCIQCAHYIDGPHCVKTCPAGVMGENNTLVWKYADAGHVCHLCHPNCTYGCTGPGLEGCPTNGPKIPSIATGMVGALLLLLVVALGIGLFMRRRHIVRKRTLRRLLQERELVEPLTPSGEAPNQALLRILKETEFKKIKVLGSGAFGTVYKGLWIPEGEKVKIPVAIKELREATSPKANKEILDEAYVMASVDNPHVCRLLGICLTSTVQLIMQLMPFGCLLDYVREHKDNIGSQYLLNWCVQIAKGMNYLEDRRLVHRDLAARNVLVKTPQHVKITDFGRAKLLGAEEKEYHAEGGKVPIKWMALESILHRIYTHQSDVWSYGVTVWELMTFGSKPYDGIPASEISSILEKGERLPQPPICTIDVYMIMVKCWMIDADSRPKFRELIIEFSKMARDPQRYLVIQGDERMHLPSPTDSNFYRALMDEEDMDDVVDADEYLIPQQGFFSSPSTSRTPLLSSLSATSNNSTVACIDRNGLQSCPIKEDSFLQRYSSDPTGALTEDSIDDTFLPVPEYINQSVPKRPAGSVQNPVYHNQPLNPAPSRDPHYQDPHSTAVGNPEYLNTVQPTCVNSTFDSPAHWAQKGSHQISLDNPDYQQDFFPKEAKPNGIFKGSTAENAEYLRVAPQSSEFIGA
# Assay Info: In vitro EGFR(T790M/L858R) kinase activity inhibition assay (Kinase-Glo Plus luminescence)
# Condition Details: 10 μM ATP, poly(Glu,Tyr) substrate
pIC50: −log10 of the molar value.
Each entry below carries its reported pIC50.
Quantity Name: pIC50

{"Smi": "C#Cc1cccc(Nc2ncnc3cc(OC)c(NC(=O)/C=C/CN4CCCCC4)cc23)c1", "Limit Sign": ">", "Recorded Number": 7.00}
{"Smi": "C#Cc1cccc(Nc2ncnc3cc(OCC)c(NC(=O)/C=C/CN4CCCCC4)cc23)c1", "Limit Sign": "=", "Recorded Number": 7.66}

----------
# Tested on: A431 Cell line
# Assay Info: Cell proliferation assay (MTT), A431
# Assay type: cell-based
# Condition Details: Homo sapiens, A-431, 72 hours treatment
Overview of recorded IC50 for various compounds

{"Compound": "C#Cc1cccc(Nc2ncnc3cc(OCC)c(NC(=O)/C=C/CN4CCCCC4)cc23)c1", "Measurement Target": "A431 Cell line", "IC50 / µM": 2.95}
{"Compound": "COc1cc2ncnc(Nc3ccc(F)c(Cl)c3)c2cc1NC(=O)/C=C/CN1CCCCC1 [Dacomitinib, reference compound]", "Measurement Target": "A431 Cell line", "IC50 / µM": 19.5}
{"Compound": "C#Cc1cccc(Nc2ncnc3cc(OC)c(NC(=O)/C=C/CN4CCCCC4)cc23)c1", "Measurement Target": "A431 Cell line", "IC50 / µM": 4.9}

----------
Measured pIC50, listed per entry for reference.
# Measurement Target: EGFR (Homo sapiens (Human))
# Sequence (P00533 25-1210): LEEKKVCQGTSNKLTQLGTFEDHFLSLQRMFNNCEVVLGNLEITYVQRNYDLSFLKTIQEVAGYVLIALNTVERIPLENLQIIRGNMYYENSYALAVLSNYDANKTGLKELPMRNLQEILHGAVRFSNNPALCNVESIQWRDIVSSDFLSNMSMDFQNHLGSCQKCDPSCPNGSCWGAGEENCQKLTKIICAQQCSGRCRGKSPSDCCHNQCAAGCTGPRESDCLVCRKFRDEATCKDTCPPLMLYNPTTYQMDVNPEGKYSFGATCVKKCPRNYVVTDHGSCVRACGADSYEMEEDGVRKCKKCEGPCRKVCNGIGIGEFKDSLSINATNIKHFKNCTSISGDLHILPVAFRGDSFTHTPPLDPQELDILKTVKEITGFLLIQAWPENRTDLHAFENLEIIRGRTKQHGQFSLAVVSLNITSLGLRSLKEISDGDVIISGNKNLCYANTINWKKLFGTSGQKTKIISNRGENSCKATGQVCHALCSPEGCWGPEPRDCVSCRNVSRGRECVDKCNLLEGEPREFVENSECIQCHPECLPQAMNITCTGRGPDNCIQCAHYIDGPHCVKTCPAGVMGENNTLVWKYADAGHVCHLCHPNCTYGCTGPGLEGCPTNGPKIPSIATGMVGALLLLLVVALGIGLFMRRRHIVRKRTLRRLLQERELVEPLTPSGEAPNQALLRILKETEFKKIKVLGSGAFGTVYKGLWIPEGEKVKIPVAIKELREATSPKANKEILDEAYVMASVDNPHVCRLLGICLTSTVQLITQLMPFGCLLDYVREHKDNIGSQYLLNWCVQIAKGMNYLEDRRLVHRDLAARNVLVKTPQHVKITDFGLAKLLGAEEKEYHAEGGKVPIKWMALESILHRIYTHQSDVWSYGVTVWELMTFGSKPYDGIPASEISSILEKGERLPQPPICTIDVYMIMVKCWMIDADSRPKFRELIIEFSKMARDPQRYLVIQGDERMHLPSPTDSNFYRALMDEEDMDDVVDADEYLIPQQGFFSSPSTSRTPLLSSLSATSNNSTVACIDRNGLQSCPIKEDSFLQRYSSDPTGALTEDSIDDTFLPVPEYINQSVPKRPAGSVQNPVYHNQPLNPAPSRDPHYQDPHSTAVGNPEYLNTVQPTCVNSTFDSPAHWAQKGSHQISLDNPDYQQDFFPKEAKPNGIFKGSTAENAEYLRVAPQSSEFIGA
pIC50: −log10 of the molar value.
Quantity Name: pIC50

{"Compound": "C#Cc1cccc(Nc2ncnc3cc(OC)c(NC(=O)/C=C/CN4CCCCC4)cc23)c1 [Compound 12]", "Measurement Target": "EGFR (Homo sapiens (Human))", "Limit Sign": ">", "Recorded Number": 8.00}
{"Compound": "C#Cc1cccc(Nc2ncnc3cc(OCC)c(NC(=O)/C=C/CN4CCCCC4)cc23)c1 [Compound 11]", "Measurement Target": "EGFR (Homo sapiens (Human))", "Limit Sign": "=", "Recorded Number": 8.77}
